target: NUAK1 (Homo sapiens); test: NanoBRET target engagement assay, HEK293 cells; details: cell-based NanoBRET target engagement assay
Sequence (O60285 whole entry): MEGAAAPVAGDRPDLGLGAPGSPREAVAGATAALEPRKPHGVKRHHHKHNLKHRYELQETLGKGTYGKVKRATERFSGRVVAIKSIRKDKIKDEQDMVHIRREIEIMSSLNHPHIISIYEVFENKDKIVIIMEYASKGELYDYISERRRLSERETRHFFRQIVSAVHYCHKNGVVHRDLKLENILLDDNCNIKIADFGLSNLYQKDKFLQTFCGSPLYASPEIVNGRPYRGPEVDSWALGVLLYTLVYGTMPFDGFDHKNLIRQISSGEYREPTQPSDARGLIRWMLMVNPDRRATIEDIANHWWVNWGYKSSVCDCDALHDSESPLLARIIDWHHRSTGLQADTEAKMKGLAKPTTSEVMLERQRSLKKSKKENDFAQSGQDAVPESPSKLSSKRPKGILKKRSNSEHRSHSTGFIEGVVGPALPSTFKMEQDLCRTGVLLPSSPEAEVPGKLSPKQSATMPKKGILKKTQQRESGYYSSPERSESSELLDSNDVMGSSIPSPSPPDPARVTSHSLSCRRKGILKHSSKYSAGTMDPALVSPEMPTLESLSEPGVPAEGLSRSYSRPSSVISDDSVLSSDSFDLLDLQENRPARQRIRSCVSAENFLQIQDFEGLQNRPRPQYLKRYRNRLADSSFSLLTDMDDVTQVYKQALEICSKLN
quantity name: NUAK1 cell TE pIC50

>>> print(df.to_string())
                                   molecule       measured_target        quantity_name    result
0  CN1C2CC1CN(c1ccc(Nc3ncc4ccn(CC5CCOCC5)c4n3)cc1)C2  NUAK1 (Homo sapiens)  NUAK1 cell TE pIC50       7.0
1  Cc1cc(=O)n(C2CCCC2)c2nc(Nc3ccc(N4CC5CC(C4)N5C)cc3)ncc12  NUAK1 (Homo sapiens)  NUAK1 cell TE pIC50       6.5
2  COc1cc(Nc2ncc3cc(C#N)c(=O)n(C4CCCC4)c3n2)cc(OC)c1OC [Compound 16, ON123790, reference compound]  NUAK1 (Homo sapiens)  NUAK1 cell TE pIC50  inactive
3  CN1C2CC1CN(c1ccc(Nc3ncc4ccn(CC5CCOC5)c4n3)cc1)C2 (stereo not shown)  NUAK1 (Homo sapiens)  NUAK1 cell TE pIC50       6.4
4  COc1cc(Nc2ncc3c(n2)N(C2CCCC2)C(=O)C(C)(C)O3)cc(OC)c1OC  NUAK1 (Homo sapiens)  NUAK1 cell TE pIC50  inactive
5  CN1C2CC1CN(c1ccc(Nc3ncc4cc(C#N)c(=O)n(C5CCCC5)c4n3)cc1)C2  NUAK1 (Homo sapiens)  NUAK1 cell TE pIC50       6.2
6  Cc1nc(Nc2cnn(C3CCNCC3)c2)nc2c1N(C)C(=O)c1cc3ccccc3cc1N2C [Compound 2, HTH-01-015, reference compound]  NUAK1 (Homo sapiens)  NUAK1 cell TE pIC50     < 4.3

###

molecular target: MARK3 (Homo sapiens); construct: purchased MRC PPU; assay: ADP-Glo biochemical assay MARK3; conditions: ADP-Glo assay
Sequence (P27448 whole entry): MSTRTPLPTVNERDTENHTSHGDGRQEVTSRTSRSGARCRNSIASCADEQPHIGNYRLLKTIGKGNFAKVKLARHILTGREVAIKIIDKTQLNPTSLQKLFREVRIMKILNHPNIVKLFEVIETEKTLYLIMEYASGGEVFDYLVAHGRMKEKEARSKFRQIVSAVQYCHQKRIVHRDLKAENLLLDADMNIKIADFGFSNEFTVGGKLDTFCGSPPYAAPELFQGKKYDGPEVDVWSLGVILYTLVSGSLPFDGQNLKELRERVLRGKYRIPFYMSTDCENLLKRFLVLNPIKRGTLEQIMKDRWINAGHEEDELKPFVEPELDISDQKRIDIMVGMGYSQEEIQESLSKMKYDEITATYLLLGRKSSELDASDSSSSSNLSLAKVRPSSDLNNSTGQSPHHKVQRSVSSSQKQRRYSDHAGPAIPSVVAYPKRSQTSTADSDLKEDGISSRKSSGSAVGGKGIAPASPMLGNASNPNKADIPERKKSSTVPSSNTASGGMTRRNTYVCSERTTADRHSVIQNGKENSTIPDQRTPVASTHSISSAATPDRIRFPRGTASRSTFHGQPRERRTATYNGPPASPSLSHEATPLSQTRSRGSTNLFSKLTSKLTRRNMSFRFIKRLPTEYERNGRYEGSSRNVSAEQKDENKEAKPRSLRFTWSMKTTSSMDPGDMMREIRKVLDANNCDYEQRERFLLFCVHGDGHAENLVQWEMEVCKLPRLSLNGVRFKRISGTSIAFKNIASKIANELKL
Listing of recorded MARK3 pIC50 by entry.
quantity name: MARK3 pIC50

In [3]: df
Out[3]:
                                   molecule  numeric_value
0  Cc1cc(=O)n(C2CCCC2)c2nc(Nc3ccc(N4CCN(C)CC4)cc3)ncc12 [Compound 4]            6.4
1  Cc1cc(=O)n(C2CCCC2)c2nc(Nc3ccc(N4CC5CC(C4)N5C)cc3)ncc12 [Compound 9]            6.2
2  Cc1cc(=O)n(CC(O)CO)c2nc(Nc3ccc(N4CC5CC(C4)N5C)cc3)ncc12 (centres unmarked) [Compound 22]            5.7
3  COc1cc(Nc2ncc3c(n2)N(C2CCCC2)C(=O)C(C)(C)O3)cc(OC)c1OC [Compound 19]            5.6
4  CC(C)N1CCN(c2ccc(Nc3ncc4ccn(CC5CCCO5)c4n3)cc2)CC1 (centres unmarked) [Compound 27]            6.2
5  COc1cc(Nc2ncc3c(C)cc(=O)n(C4CCCC4)c3n2)cc(OC)c1OC [Compound 15]            5.8
6  COCCn1c(=O)cc(C)c2cnc(Nc3ccc(N4CC5CC(C4)N5C)cc3)nc21 [Compound 21]            5.2
7  CC(C)N1CCN(c2ccc(Nc3ncc4ccn(C5CCCC5)c4n3)cc2)CC1 [Compound 8]            6.2
